target: hNET (Homo sapiens); construct: expressed in transfected cells; host or cells: HEK-293; assay: fluorescence-based norepinephrine reuptake assay (Tsuruda et al. 2010; data with asterisk); type: cell-based; conditions: norepinephrine reuptake inhibition, fluorescence-based assay (data indicated by an asterisk)
Sequence (P23975 whole entry): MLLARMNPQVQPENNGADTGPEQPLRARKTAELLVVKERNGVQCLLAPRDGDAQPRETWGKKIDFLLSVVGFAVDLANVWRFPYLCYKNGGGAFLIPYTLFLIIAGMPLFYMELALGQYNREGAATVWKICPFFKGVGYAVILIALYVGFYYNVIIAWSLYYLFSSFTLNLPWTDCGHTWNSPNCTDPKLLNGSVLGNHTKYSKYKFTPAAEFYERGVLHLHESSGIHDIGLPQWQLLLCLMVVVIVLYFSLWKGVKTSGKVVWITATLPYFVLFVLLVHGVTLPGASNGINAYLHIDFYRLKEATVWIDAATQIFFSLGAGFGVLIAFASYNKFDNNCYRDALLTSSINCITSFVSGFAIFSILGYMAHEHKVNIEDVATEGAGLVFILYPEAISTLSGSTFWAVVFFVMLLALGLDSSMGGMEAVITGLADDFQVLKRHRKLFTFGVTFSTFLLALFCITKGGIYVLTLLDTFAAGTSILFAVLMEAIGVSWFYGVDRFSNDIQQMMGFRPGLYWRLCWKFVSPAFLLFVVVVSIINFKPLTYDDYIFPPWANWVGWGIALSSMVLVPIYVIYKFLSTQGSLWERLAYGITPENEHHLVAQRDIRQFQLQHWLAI
Marks after values point to notes of the source that are not given here.
outcomeMeasure: NET pIC50

Example entries and their recorded answers appear below.
Clc1cccc(Cl)c1OCc1occc1C1CCNCC1    ≧4.5*
c1ccc(OCc2ccoc2C2CCNCC2)cc1    ≧7.0*
Clc1cccc(OCc2occc2C2CCNCC2)c1    ≧7.0*
Fc1cccc(F)c1OCc1ccoc1C1CCNCC1    ≧6.0*
Fc1cc(F)c(OCc2ccsc2C2CCNCC2)c(F)c1    ≧7.0*

Provide the reported NET pIC50 (system: hNET (Homo sapiens)) for Clc1cccc(OCc2ccsc2C2CCNCC2)c1 ≧7.0*

Provide the reported NET pIC50 (system: hNET (Homo sapiens)) for Fc1cccc(F)c1OCc1occc1C1CCNCC1 ≧5.0*

Provide the reported NET pIC50 (system: hNET (Homo sapiens)) for Fc1ccc(F)c(OCc2ncccc2C2CCNCC2)c1Cl ≧7.0*

Each recorded value in this set is attributed to patent US8530663B2.
